Provide the recorded INHIBITION for the entries that follow.
tested on: Plasmodium berghei; assay: Screen against P. berghei liver stage (PbLuc), transformed with Luciferase, at 10uM; format: functional, HepG2; conditions: tested at 10 uM
The campaign covered roughly 69,000 compounds. About 8,600 (12%) showed an effect of 50% or more. The full list was thinned out, with strong results kept by preference.
Answers are plain numbers, in %.

Answer for every listed entry: what is its INHIBITION? The entries follow.
1. CN(C)[C@@H]1CCN(c2ncc(F)cn2)[C@H]1Cc1cccnc1
2. Cc1ccsc1CN(C)CCc1scnc1C
3. Cc1ncsc1CCN(C)Cc1ccc(CO)o1
4. Cn1ccnc1CN1CCC(Cc2ccccn2)CC1
5. Cc1ccc(S(=O)(=O)N2CCN(CCC(N)=O)CC2)s1
6. Cc1ncsc1CCN(C)Cc1ccc(Br)o1
7. CCn1cc(CN2CCCN(C(=O)c3c(C)oc(C)c3C)CC2)cn1

1: 9.72; 2: 46.9; 3: 57.6; 4: 38.2; 5: 38.8; 6: 47.1; 7: 15.6
